Data credit: patent US10899732B2

Target: NaV1.7 (Homo sapiens)
Construct: expression vector containing the full-length cDNA coding for the desired human sodium channel α-subunit
Sequence (Q15858 1-1977 isoform Q15858-3): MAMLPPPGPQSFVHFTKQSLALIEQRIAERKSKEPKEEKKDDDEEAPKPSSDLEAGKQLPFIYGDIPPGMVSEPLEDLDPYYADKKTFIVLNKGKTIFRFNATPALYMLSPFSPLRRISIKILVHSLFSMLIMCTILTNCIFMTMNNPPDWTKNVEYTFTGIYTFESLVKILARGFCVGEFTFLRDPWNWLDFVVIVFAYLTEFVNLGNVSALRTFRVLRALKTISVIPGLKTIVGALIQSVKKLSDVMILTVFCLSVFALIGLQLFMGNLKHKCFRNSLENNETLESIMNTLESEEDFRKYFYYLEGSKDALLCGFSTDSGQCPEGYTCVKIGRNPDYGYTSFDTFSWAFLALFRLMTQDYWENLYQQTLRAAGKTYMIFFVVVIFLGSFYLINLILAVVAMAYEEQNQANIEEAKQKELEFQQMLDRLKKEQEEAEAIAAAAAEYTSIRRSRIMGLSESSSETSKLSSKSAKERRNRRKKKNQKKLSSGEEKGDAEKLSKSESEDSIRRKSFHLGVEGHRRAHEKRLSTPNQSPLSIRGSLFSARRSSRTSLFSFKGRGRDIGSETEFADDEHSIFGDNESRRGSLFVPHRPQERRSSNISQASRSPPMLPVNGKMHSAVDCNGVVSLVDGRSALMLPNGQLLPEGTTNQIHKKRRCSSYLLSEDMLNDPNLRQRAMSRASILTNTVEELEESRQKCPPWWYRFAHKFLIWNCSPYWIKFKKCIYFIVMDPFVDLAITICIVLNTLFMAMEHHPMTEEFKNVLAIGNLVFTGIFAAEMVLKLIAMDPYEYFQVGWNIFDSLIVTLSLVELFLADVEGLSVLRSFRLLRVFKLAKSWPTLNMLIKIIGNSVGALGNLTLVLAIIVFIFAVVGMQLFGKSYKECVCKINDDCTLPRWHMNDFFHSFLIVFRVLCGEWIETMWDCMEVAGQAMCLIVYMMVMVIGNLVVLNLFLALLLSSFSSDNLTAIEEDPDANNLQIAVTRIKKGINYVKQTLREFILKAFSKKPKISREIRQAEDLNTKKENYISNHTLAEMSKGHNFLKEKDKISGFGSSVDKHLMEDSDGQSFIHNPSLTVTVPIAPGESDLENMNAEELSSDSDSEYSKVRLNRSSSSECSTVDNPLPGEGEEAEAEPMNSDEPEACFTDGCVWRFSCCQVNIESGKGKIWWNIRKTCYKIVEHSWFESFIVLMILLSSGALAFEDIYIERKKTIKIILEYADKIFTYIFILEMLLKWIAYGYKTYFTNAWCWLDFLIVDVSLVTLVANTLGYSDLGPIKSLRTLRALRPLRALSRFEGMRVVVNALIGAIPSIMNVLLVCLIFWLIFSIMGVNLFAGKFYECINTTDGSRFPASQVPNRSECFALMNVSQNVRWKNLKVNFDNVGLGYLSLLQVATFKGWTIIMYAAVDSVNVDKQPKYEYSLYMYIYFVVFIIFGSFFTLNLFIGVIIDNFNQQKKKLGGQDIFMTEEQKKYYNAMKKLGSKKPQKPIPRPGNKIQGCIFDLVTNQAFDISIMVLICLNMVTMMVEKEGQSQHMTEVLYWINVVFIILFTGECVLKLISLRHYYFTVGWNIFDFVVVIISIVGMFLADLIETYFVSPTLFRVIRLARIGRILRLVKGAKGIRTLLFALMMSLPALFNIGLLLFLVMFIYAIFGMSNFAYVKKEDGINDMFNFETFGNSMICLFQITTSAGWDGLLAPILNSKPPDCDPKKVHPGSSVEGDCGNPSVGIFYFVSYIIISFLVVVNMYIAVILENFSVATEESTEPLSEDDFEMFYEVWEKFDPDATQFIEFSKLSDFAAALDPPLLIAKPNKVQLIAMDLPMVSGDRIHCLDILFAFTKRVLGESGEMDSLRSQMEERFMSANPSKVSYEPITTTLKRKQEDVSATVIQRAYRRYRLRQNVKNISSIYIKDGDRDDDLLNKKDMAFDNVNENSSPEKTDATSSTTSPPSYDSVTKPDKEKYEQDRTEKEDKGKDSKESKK
Sequence (Q07699 19-218 partner): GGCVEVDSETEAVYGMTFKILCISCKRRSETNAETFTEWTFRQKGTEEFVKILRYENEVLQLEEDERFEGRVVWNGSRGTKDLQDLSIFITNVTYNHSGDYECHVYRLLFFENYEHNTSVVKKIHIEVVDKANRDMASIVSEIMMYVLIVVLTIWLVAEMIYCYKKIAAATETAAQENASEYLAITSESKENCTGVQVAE
Test: Patch voltage clamp electrophysiology assay (EP), NaV1.7 in HEK-293 cells
Conditions: HEK-293, β1 coexpressed, held at -60 mV (inactivated state)
Source text: Electrophysiological Assay (EP) (In Vitro Assay) Patch voltage clamp electrophysiology allows for the direct measurement and quantification of block of voltage-gated sodium channels (NaV's), and allows the determination of the time- and voltage-dependence of block which has been interpreted as differential binding to the resting, open, and inactivated states of the sodium channel (Hille, B., Journal of General Physiology (1977), 69: 497-515). […]
Listing: IC50 of selected molecules
Hi, when you answer, please include the unit after the number. Thanks!

Some solved cases for reference:
- Structure string: "Cc1nn([C@@H]2CCN(C(=O)c3cc(Cl)cc(Cl)c3)C2)c2cc(F)c(C(=O)NS(=O)(=O)C3CC3)cc12"
  Measured property: "IC50"
  Result: "4000 nM"
- Structure string: "Cc1nn(C2CCN(Cc3cc(Cl)cc(OC(F)(F)F)c3)CC2)c2cc(F)c(C(=O)NS(=O)(=O)C3CC3)cc12"
  Measured property: "IC50"
  Result: "51 nM"
- Structure string: "Cc1nn(CC23CC4CC(CC(C4)C2)C3)c2cc(F)c(C(=O)N[S@TB3](=O)(=O)N3CCC3)cc12"
  Measured property: "IC50"
  Result: "3400 nM"

State the recorded IC50 for this entry: Cc1nn(C2CN(Cc3cc(Cl)cc(OC(F)(F)F)c3)C2)c2cc(F)c(C(=O)NS(=O)(=O)C3CC3)cc12 88 nM

* * *

Target: NaV1.5 (Homo sapiens)
Construct: expression vector containing the full-length cDNA coding for the desired human sodium channel α-subunit; expressed in transfected cells; host or cells: HEK-293
Sequence (Q14524 whole entry): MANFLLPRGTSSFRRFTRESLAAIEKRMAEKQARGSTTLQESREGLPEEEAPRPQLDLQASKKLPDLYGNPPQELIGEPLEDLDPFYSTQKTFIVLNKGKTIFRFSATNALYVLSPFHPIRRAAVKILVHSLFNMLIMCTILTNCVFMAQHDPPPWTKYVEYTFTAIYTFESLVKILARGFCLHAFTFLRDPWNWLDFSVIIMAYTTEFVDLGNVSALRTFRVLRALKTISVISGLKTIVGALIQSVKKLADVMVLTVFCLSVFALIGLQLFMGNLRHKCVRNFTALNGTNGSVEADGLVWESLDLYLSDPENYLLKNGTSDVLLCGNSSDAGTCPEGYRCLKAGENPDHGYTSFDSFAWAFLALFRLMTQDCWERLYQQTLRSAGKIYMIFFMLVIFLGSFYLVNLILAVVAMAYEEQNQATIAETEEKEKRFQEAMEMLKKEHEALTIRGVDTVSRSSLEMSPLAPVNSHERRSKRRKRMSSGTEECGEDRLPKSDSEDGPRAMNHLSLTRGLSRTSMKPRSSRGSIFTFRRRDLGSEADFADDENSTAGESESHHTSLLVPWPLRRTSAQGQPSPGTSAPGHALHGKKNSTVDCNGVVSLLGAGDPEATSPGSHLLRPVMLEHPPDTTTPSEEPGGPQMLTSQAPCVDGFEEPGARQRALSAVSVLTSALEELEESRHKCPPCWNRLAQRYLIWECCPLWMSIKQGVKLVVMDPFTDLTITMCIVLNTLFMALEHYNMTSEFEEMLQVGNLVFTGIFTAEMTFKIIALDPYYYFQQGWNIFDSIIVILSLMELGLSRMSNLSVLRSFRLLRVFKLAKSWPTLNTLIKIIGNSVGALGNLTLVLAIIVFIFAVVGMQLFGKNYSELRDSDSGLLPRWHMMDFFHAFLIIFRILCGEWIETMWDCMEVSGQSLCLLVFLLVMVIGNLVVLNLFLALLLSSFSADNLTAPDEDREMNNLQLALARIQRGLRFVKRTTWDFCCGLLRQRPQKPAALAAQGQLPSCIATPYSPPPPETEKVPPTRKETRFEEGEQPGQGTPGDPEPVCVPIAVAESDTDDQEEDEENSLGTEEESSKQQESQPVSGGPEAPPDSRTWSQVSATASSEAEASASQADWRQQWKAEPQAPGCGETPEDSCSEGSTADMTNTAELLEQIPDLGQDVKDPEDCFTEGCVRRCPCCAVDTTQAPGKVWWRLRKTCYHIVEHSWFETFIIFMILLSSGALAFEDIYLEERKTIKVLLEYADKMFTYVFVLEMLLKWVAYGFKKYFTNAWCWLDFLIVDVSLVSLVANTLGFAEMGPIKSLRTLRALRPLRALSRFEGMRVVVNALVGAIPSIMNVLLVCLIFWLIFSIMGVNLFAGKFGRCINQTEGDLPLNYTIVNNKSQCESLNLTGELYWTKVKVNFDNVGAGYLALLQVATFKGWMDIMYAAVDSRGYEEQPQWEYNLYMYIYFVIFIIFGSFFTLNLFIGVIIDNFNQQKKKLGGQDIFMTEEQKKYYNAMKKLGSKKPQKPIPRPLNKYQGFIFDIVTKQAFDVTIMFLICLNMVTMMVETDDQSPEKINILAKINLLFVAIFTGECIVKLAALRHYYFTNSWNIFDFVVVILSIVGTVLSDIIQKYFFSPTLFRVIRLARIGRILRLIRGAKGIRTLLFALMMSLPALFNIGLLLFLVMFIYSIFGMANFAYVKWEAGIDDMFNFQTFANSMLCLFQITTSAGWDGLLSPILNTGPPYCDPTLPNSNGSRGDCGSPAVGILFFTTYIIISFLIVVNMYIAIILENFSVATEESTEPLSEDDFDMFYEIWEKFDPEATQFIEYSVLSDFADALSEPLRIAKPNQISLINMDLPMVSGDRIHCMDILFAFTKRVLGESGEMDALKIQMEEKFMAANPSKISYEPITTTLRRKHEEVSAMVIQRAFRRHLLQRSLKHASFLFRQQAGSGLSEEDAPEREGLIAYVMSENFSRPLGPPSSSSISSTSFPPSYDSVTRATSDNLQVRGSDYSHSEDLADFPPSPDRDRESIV
Test: Patch voltage clamp electrophysiology assay (EP), NaV1.5 in HEK-293 cells
Type: cell-based
Conditions: human, pH 7.4; HEK-293, β1 coexpressed, held at -60 mV (inactivated state)
From the text: Electrophysiological Assay (EP) (In Vitro Assay) Patch voltage clamp electrophysiology allows for the direct measurement and quantification of block of voltage-gated sodium channels (NaV's), and allows the determination of the time- and voltage-dependence of block which has been interpreted as differential binding to the resting, open, and inactivated states of the sodium channel (Hille, B., Journal of General Physiology (1977), 69: 497-515). […]
pIC50: −log10 of the molar value.
# Lookup of reported pIC50 keyed by entry

Examples with their reported pIC50 follow.
- Structure string: "Cc1nn(-c2cnc(OCC(C)C)c(Cl)c2)c2cc(F)c(C(=O)NS(C)(=O)=O)cc12"
  pIC50: "≤ 4.52"
- Structure string: "Cc1nn(CC23CC4CC(CC(C4)C2)C3)c2cc(F)c(C(=O)N[S@TB2](C)(=O)=O)cc12"
  pIC50: "≤ 4.52"
- Structure string: "Cc1nn(C23CC4CC(CC(C4)C2)C3)c2cc(F)c(C(=O)NS(C)(=O)=O)cc12"
  pIC50: "≤ 4.52"

Sample Cc1nn([C@@H]2CCN(C(=O)c3cc(Cl)cc(Cl)c3)C2)c2cc(F)c(C(=O)NS(=O)(=O)C3CC3)cc12 — what was its pIC50? ≤ 4.52

Do the same for Cc1nn(C2CCCCC2)c2cc(F)c(C(=O)NS(C)(=O)=O)cc12 please ≤ 4.52
